B1: Twister Ribozyme (parent)
chain: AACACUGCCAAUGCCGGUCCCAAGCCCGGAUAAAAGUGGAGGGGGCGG

- Variants of: B1
- test-name: self-cleavage, relative activity (ratio to wild type); higher = more cleavage; co-transcriptional
Label Fulfilled when self-cleavage >= 0.1; otherwise Not fulfilled.

C20G G43A    Not fulfilled
G36C C46G    Fulfilled
G16U A33C    Fulfilled

## Task Does self-cleavage meet or surpass 0.1 for U37G G44U ?
## Result Fulfilled

## Task Does self-cleavage meet or surpass 0.1 for C3G A4C ?
## Result Fulfilled

## Task Does self-cleavage meet or surpass 0.1 for G29U G36U ?
## Result Fulfilled

## Task Does self-cleavage meet or surpass 0.1 for A33G G43A ?
## Result Fulfilled

## Task Does self-cleavage meet or surpass 0.1 for A30U G47A ?
## Result Fulfilled

## Task Does self-cleavage meet or surpass 0.1 for U31C G45A ?
## Result Fulfilled

## Task Does self-cleavage meet or surpass 0.1 for A1C A22C ?
## Result Fulfilled

## Task Does self-cleavage meet or surpass 0.1 for U6G C21G ?
## Result Fulfilled

## Task Does self-cleavage meet or surpass 0.1 for A4C C46G ?
## Result Fulfilled

## Task Does self-cleavage meet or surpass 0.1 for C19A C25A ?
## Result Not fulfilled

Origin of the recorded values: the RNAGym collection of RNA variant scans (doi:10.7554/elife.80360)
